Hey, just so you know, these numbers are from PubChem BioAssay AID248.

Tested on: L1210 leukemia ip in BDF1 mice, survival T/C
Test: NCI In Vivo Anticancer Drug Screen. Data for tumor model L1210 Leukemia (intraperitoneal) in B6D2F1 (BDF1) mice
Experimental Setup: endpoint: mean survival time; dose: 100.0 mg/kg/injection; schedule: Q04DX003 (ip); vehicle: saline with Tween-80; higher = longer survival
Toxic doses and inconclusive results are not listed.
Readout Name: T/C

Reference set, count: 6
| Compound | Measured On | T/C |
| --- | --- | --- |
| CCCc1cc(C)cc2nc(-c3ccccc3)oc12 | L1210 leukemia ip in BDF1 mice, survival T/C | 101 % of control |
| COc1ccc(/C=N/NC(=O)C[n+]2ccccc2)c(OC)c1 | L1210 leukemia ip in BDF1 mice, survival T/C | 94 % of control |
| C/C=C\c1ccc(OC(=O)NCCC)c(OC)c1 | L1210 leukemia ip in BDF1 mice, survival T/C | 97 % of control |
| O=C1c2ccccc2CCCC1N1CCOCC1 (configuration not stated) | L1210 leukemia ip in BDF1 mice, survival T/C | 95 % of control |
| S=C(S)NCCc1ccccn1 | L1210 leukemia ip in BDF1 mice, survival T/C | 95 % of control |
| O=C(COc1ccc(Cl)c(Cl)c1)Nc1ccc[n+](Cc2ccc(Cl)cc2S(=O)(=O)F)c1 | L1210 leukemia ip in BDF1 mice, survival T/C | 97 % of control |

Which T/C value belongs to "N#CC(C#N)=C1c2ccccc2C(=O)c2ccccc21" ? 97 % of control

Endpoint output: T/C of "c1cnc2nc3[nH]c4ccccc4c3nc2c1" . Value? 88 % of control
